In this section, each of the compounds is paired with its reported solubility kinetic.
# TEST CONTEXT: buffer; pH 7.4; 200.0 µM
Please reply with the bare figure in µg/mL and do not write the unit itself.

// below: answered compounds
compound=CCn1c(/C=C2\C(=O)N(C(C)C)c3ccccc32)nc2ccccc2c1=O measured_metric="solubility kinetic" value_reported=22.2
compound=COc1ccc(N(CC(=O)N2CCCC2)S(C)(=O)=O)cc1 measured_metric="solubility kinetic" value_reported=34.5
compound=O=S(=O)(c1ccc(Cl)cc1)N1CCCCCC1 measured_metric="solubility kinetic" value_reported=11.4
compound=CCN1C(=O)CC(C(=O)OC)=C1C measured_metric="solubility kinetic" value_reported=24.6
compound=Fc1ccc(OCc2nc(-c3cccs3)no2)cc1 measured_metric="solubility kinetic" value_reported=0.8
compound=Cc1cccc(N=C2NC(=O)/C(=C/c3cccn3C)S2)c1 measured_metric="solubility kinetic" value_reported=1
compound="COc1ccc(C(=O)NC2=Nc3ccccc3N=C(C)C2c2ccccc2)cc1 (stereo unspecified)" measured_metric="solubility kinetic" value_reported=22.6
compound=COC(=O)c1ccc(CNC(=O)COC(=O)/C=C/c2ccc(OC)c(OC)c2)cc1 measured_metric="solubility kinetic" value_reported=6.6

Reported solubility kinetic of "COc1ccc(OCC(=O)O/N=C(\N)c2ccc(OC)cc2)cc1" : 1.2

Recorded solubility kinetic (compound "O=C(Cc1ccc(Br)cc1)N1CCc2ccccc2C1" ): 3.9

Given item "CCNC(=O)c1ccccc1-c1nc(-c2ccccc2OC)no1" , the value recorded as its solubility kinetic is 42.3

----------
# TEST CONTEXT: buffer; pH 7.4; 200.0 µM
MEASURED METRIC: solubility kinetic (µg/mL)
Please give a number only; it is taken to be in µg/mL.

Use the examples below as a reference point.
item_smiles=COc1ccc(C(=O)NCc2cc(C)nc3ccccc23)cc1OC value_reported=39.6
item_smiles=Cc1nc([N+](=O)[O-])c(C(=O)OCc2ccccc2F)n1C value_reported=41.8
item_smiles=CC(C)Nc1nc(Cl)nc(Nc2ccccc2)n1 value_reported=27.3

Proceed to the following item.
Field solubility kinetic (entry "Cc1cc(Cl)nc(-c2ccccc2)n1" ) reads 0.3

----------
# TEST CONTEXT: buffer; pH 7.4; 200.0 µM
MEASURED METRIC: solubility kinetic (µg/mL)
Field format: number, assumed µg/mL, no unit text.

Worked examples follow.
item_smiles=CC(=O)OCCN(C)c1cc(SC(C)C)c2nonc2c1[N+](=O)[O-] measured_metric="solubility kinetic" quantity_unit=µg/mL value_reported=51.2
item_smiles=COc1ccc(CN2CCSCC2)c(OC)c1C measured_metric="solubility kinetic" quantity_unit=µg/mL value_reported=26.4

Form field solubility kinetic, entry "O=C(Cc1c(F)cccc1Cl)Nc1cc(S(=O)(=O)N2CCOCC2)ccc1N1CCCC1" : 2

Notebook: "Nc1nc(SCc2ccc(F)cc2)ns1" , solubility kinetic read as 33.6

----------
# TEST CONTEXT: buffer; pH 7.4; 200.0 µM
MEASURED METRIC: solubility kinetic (µg/mL)
Your answer is read as µg/mL, so omit the unit and give the number.

Example results:
item_smiles=COc1cccc(-c2nc(-c3ccc(Br)o3)no2)c1 measured_metric="solubility kinetic" value_reported=0.5
item_smiles=Cc1cccc(NC(=O)CSc2cccc[n+]2[O-])c1C measured_metric="solubility kinetic" value_reported=39.7

# context switch: different molecule, same solubility kinetic
Value of solubility kinetic reported for the molecule "Cc1ccccc1Sc1ncccc1[N+](=O)[O-]" is 5.1

----------
# TEST CONTEXT: buffer; pH 7.4; 200.0 µM
MEASURED METRIC: solubility kinetic (µg/mL)
Enter your answer as a number in µg/mL; do not include the unit.

Some molecules with known solubility kinetic results, for comparison:
molecule=COc1ccc2c(CC(=O)Nc3ccccc3OC)coc2c1 value_reported=31.4
molecule="COc1ccc(Cl)cc1S(=O)(=O)NC(C)C(=O)NCc1ccccn1 (configuration not stated)" value_reported=52.8
molecule=O=C(Nc1ccccc1)Nc1ccc(Oc2cccnc2)nc1 value_reported=20.5

# next molecule below
// "Cc1cc(C(=O)Nc2sccc2C(N)=O)c(C)o1" : solubility kinetic value = 27.1

----------
# TEST CONTEXT: buffer; pH 7.4; 200.0 µM
Below: a set of entries, each annotated with reported solubility kinetic.
Numeric only. Scale: µg/mL

Record excerpt, results attached:
molecule=Cc1cc(Nc2ccc(C(=O)O)cc2)nc(N)n1 value_reported=28
molecule="CC(OC(=O)/C=C/c1cccc(F)c1)C(=O)NC1CCCCC1C (configuration not stated)" value_reported=1.9
molecule="CCOC(=O)c1ccc(CC2SC(N)=NC2=O)cc1 (configuration not stated)" value_reported=36.6
molecule=CCCCc1c(O)nc(SCC(=O)N2CCCCCC2)[nH]c1=O value_reported=48.9

Moving on to the next molecule.
# molecule Cc1ccc2c(c1)C(O)(CC(=O)c1cccc(-n3cccc3)c1)C(=O)N2 (configuration not stated) ; its solubility kinetic = 7.2

----------
# TEST CONTEXT: buffer; pH 7.4; 200.0 µM
Residues, ends and D or L forms follow the SMILES beside them.
MEASURED METRIC: solubility kinetic

compound=Cc1ccc(C(=O)OCC(=O)N2c3ccccc3NC(=O)C2(C)C)cc1S(=O)(=O)N1CCCCC1 value_reported="3.6 µg/mL"
compound=CCCCOc1nc(N2CCOCC2)nc(C)c1[N+](=O)[O-] value_reported="1.5 µg/mL"
compound=Cc1ccc(Cn2ncc(C)c2N)o1 value_reported="> 28.7 µg/mL"

Value of measured solubility kinetic for the entry "COc1ccc(N=C2NC(=O)/C(=C/c3ccco3)S2)cc1" : 1.6 µg/mL

// recorded solubility kinetic for "COc1ccc(NC(=O)c2cc(C)n(Cc3cccs3)c2C)cc1" : 1.3 µg/mL

Entry CC(=O)NC(Cc1ccccc1)C(=O)NC(Cc1ccccc1)C(=O)O (stereo not drawn) (Ac-Phe-Phe-OH; configuration not given here) ; solubility kinetic = 52.4 µg/mL

solubility kinetic for "[Br-].c1ccc(-c2c[n+]3c(n2-c2ccccc2)CCC3)cc1" is > 51.2 µg/mL

Reported solubility kinetic ( "O=C(c1ccc(COCC(F)(F)F)o1)N1CCCC1" ) = 40.3 µg/mL

What the record says about Cc1cc(NC(=O)C2CC(=O)N(c3ccc(Cl)cc3)C2)no1 (centres undefined) : solubility kinetic is 31 µg/mL

Form: compound = "COc1ccccc1-n1c(-c2ccc(F)cc2)coc1=O" ; solubility kinetic = 2.9 µg/mL

// solubility kinetic value for "O=C1C=C(N2CCCCCC2)C(=O)N1c1ccc(Cl)cc1" : 8.9 µg/mL

----------
# TEST CONTEXT: buffer; pH 7.4; 200.0 µM
MEASURED METRIC: solubility kinetic (µg/mL)
Reply with just the number (in µg/mL).

// recorded solubility kinetic for "Cn1c(=O)c(C(N)=S)cn(-c2ccccc2)c1=O" : 25.5

----------
Overview of reported log10 of solubility kinetic across a group of compounds:
# TEST CONTEXT: buffer; pH 7.4; 200.0 µM
In plain terms, each number is the log10 of measured solubility kinetic in µg/mL.

compound=FC(F)(F)c1cccc(NC(=S)Nc2ccc(Cl)c(Cl)c2)c1 value_reported=0.18
compound="O=C(NC1CCCN(CCc2ccccc2)C1)c1c[nH]c2ccccc12 (stereo not drawn)" value_reported=1.69
compound=Cn1c(O)c(C(=Nc2ccc(F)cc2)c2ccccc2)c(=O)n(C)c1=O value_reported=0.87
compound=O=C(c1cccc(OCc2ccccc2)c1)N1CCOCC1 value_reported=1.63
compound=O=C(NCc1ccccc1)N1CCN(c2ccccc2)CC1 value_reported=1.21
compound=CCCCNC(=S)Nc1ccccc1Cc1ccccc1 value_reported=1.51
compound=Cc1ccc(C(=O)Nc2cccc(NC(=O)c3ccc(C)o3)n2)o1 value_reported=0.60
compound=Cc1ccc(N(CC(=O)Nc2cc(C)ccc2C)S(C)(=O)=O)cc1 value_reported=1.53
compound="CC(C)CN1C(=O)N(c2ccc(Cl)cc2)C(C)(O)CC1(C)C (stereo not drawn)" value_reported=0.61
compound=COc1ccccc1CNc1ncnc2sccc12 value_reported=1.54

// log10 of solubility kinetic value for "Cc1cc(C(=O)Nc2ccc3ccccc3c2)oc1C" : 0.58

So, CCC(C)Nc1nc2c(c(=O)[nH]c(=O)n2C)n1CCOc1ccccc1 (stereo not drawn) ? Its log10 of solubility kinetic was 1.30

compound CC1Cc2ccccc2N1C(=O)CN1CCCCC1.Cl (stereo not drawn) , log10 of solubility kinetic observed: 1.59

# compound "N/C(=N\O)c1ccccc1N1CCCCC1" ; its log10 of solubility kinetic = 1.48

Item: CC1CCC(NC(=O)C2COc3ccccc3O2)CC1 (stereo not drawn) | log10 of solubility kinetic: 0.74

log10 of solubility kinetic measured on "Cc1ccc(S(=O)(=O)Nc2ccc(Cl)cn2)cc1C" = 0.53

----------
# TEST CONTEXT: buffer; pH 7.4; 200.0 µM
MEASURED METRIC: solubility kinetic (µg/mL)
Hi! Could you send only the number? It should be in µg/mL, unit omitted.

Some solved cases for reference:
compound=FCCCOc1ccc(-c2nccc(-c3ccccn3)n2)cc1 quantity_unit=µg/mL value_reported=2.8
compound=Cc1ccc(OCCC(=O)Nc2ccc3c(c2)OCO3)cc1 quantity_unit=µg/mL value_reported=14.8
compound=O=C(Nc1ccc(C(F)(F)F)cn1)Nc1cccs1 quantity_unit=µg/mL value_reported=0.8
compound=O=C(NC(=S)Nc1ccc(Br)cc1)C1CCC1 quantity_unit=µg/mL value_reported=2.6
compound="C[N+]12CCCCC1[C@@H](CO)CCC2.[Br-] (stereo not given in full)" quantity_unit=µg/mL value_reported=39.1

Value of solubility kinetic reported for the compound "Clc1ccc(C2Nc3cccc4cccc(c34)N2)cc1" is 7.7

Sure, the documented solubility kinetic for COc1ccccc1/C=C/C1NC(=O)NC(C)=C1C(=O)OC(C)C (stereo not given) is 0.4
